- Test system: NCI-H1417 complex spheroids, growth % test/control
- assay: Anticancer human tumor NCI-H1417 cell line growth inhibition [Asc];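 note: spheroids exposed to compounds for 7 days; 100% = DMSO vehicle control wells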
- condition_notes: second compound 10 µM; first compound 0.316 µM; stronger effect = lower value

[
  {
    "compound": "O=C(c1cc(Cc2n[nH]c(=O)c3ccccc23)ccc1F)N1CCN(C(=O)C2CC2)CC1 + Cc1c(S(C)(=O)=O)c(-c2cc(F)cc(N3CCN(c4ccc(NS(=O)(=O)c5ccc(NC(CCN6CCC(C(=O)OCCCP(=O)(O)O)CC6)CSc6ccccc6)c(S(=O)(=O)C(F)(F)F)c5)cc4)CC3)c2)c(-c2ccc(Cl)cc2)n1C(C)C",
    "viability, T/C / %": 2.54
  }
]

----------
- Test system: NCI-H1417 complex spheroids, growth % test/control
- assay: Anticancer human tumor NCI-H1417 cell line growth inhibition [Asc];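 note: spheroids exposed to compounds for 7 days; 100% = DMSO vehicle control wells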
- condition_notes: second compound 3.16 µM; first compound 0.316 µM; stronger effect = lower value
result_type: viability, T/C (%)

[
  {
    "molecule": "C=C(F)C(=O)N1CCN(c2nc(OCC3CCCN3C)nc3c2CCN(c2cccc4cccc(Cl)c24)C3)CC1CC#N (stereo unspecified) + Cc1c(S(C)(=O)=O)c(-c2cc(F)cc(N3CCN(c4ccc(NS(=O)(=O)c5ccc(NC(CCN6CCC(C(=O)OCCCP(=O)(O)O)CC6)CSc6ccccc6)c(S(=O)(=O)C(F)(F)F)c5)cc4)CC3)c2)c(-c2ccc(Cl)cc2)n1C(C)C",
    "result_type": "viability, T/C",
    "unit_abbreviation": "%",
    "experimental_value": 2.82
  },
  {
    "molecule": "O=C(c1cc(Cc2n[nH]c(=O)c3ccccc23)ccc1F)N1CCN(C(=O)C2CC2)CC1 + Cc1c(S(C)(=O)=O)c(-c2cc(F)cc(N3CCN(c4ccc(NS(=O)(=O)c5ccc(NC(CCN6CCC(C(=O)OCCCP(=O)(O)O)CC6)CSc6ccccc6)c(S(=O)(=O)C(F)(F)F)c5)cc4)CC3)c2)c(-c2ccc(Cl)cc2)n1C(C)C",
    "result_type": "viability, T/C",
    "unit_abbreviation": "%",
    "experimental_value": 2.54
  },
  {
    "molecule": "COc1c(OCCCN2CCOCC2)ccc2c3n(c(=NC(=O)c4cnc(N)nc4)nc12)CCN3 + Cc1c(S(C)(=O)=O)c(-c2cc(F)cc(N3CCN(c4ccc(NS(=O)(=O)c5ccc(NC(CCN6CCC(C(=O)OCCCP(=O)(O)O)CC6)CSc6ccccc6)c(S(=O)(=O)C(F)(F)F)c5)cc4)CC3)c2)c(-c2ccc(Cl)cc2)n1C(C)C",
    "result_type": "viability, T/C",
    "unit_abbreviation": "%",
    "experimental_value": 0.22
  },
  {
    "molecule": "C#Cc1c(F)ccc2cc(O)cc(-c3ncc4c(N5CC6CCC(C5)N6)nc(OCC56CCCN5CC(F)C6)nc4c3F)c12 (stereo unspecified) + Cc1c(S(C)(=O)=O)c(-c2cc(F)cc(N3CCN(c4ccc(NS(=O)(=O)c5ccc(NC(CCN6CCC(C(=O)OCCCP(=O)(O)O)CC6)CSc6ccccc6)c(S(=O)(=O)C(F)(F)F)c5)cc4)CC3)c2)c(-c2ccc(Cl)cc2)n1C(C)C",
    "result_type": "viability, T/C",
    "unit_abbreviation": "%",
    "experimental_value": 3.53
  },
  {
    "molecule": "O=C(c1ccc(F)c(F)c1Nc1ccc(I)cc1F)N1CC(O)([C@@H]2CCCCN2)C1 + Cc1c(S(C)(=O)=O)c(-c2cc(F)cc(N3CCN(c4ccc(NS(=O)(=O)c5ccc(NC(CCN6CCC(C(=O)OCCCP(=O)(O)O)CC6)CSc6ccccc6)c(S(=O)(=O)C(F)(F)F)c5)cc4)CC3)c2)c(-c2ccc(Cl)cc2)n1C(C)C",
    "result_type": "viability, T/C",
    "unit_abbreviation": "%",
    "experimental_value": 0.48
  },
  {
    "molecule": "C=CC(=O)N1CCN(c2nc(=O)n(-c3c(C)ccnc3C(C)C)c3nc(-c4c(O)cccc4F)c(F)cc23)C(C)C1 (stereo unspecified) + Cc1c(S(C)(=O)=O)c(-c2cc(F)cc(N3CCN(c4ccc(NS(=O)(=O)c5ccc(NC(CCN6CCC(C(=O)OCCCP(=O)(O)O)CC6)CSc6ccccc6)c(S(=O)(=O)C(F)(F)F)c5)cc4)CC3)c2)c(-c2ccc(Cl)cc2)n1C(C)C",
    "result_type": "viability, T/C",
    "unit_abbreviation": "%",
    "experimental_value": 4.64
  }
]
